Reported IC50 on Histone deacetylase 2 (Homo sapiens) for assorted compounds, compiled from publications.
Sequence (Q92769 whole entry): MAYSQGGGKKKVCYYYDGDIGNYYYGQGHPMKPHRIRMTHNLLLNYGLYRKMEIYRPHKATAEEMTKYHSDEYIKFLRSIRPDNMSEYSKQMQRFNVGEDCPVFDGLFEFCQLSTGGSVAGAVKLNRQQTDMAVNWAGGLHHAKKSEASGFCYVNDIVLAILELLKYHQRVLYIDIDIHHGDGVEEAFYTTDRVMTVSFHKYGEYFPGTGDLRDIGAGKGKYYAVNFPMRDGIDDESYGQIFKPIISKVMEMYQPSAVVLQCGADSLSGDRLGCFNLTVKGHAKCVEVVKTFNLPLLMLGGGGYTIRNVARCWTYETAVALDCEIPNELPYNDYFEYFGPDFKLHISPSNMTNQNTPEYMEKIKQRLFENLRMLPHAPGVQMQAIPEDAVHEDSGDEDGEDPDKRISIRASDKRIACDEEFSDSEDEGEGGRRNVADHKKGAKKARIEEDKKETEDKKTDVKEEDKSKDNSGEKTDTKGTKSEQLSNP
endpoint_label: IC50 (nM)

Field: example entries. Status: answers known.
Nc1ccc(-c2cccs2)cc1NC(=O)c1ccc(CN(CCO)Cc2ccc3c(c2)OCO3)cc1	740
CC[C@H](C(=O)Nc1ccc(C(=O)Nc2ccc(F)cc2N)nc1)c1ccccc1	4200
CC1(C)CC(=O)Nc2ccc(C(=O)NC[C@H]3CC[C@@H](/C=C/C(=O)NO)CC3)cc21	310
COC(=O)Cc1c(C)n(Cc2ccc(-c3cn(CCCCCC(=O)NO)nn3)cc2)c2ccc(OC)cc12	1360
CC(C)[C@@H]1NC(=O)[C@]2(C)CSC(=N2)c2coc(n2)CNC(=O)C[C@@H](/C=C/CCS)OC1=O	20

1: COc1nc(-c2ccc(NC(=O)Nc3ccc(C(=O)NCCCCCC(=O)Nc4ccccc4N)cc3)cc2)nc(N2CCOCC2)n1
2: Nc1ccccc1NC(=O)c1ccc2nccnc2c1
// query Please tell me which of the two, 1 or 2 , has the higher reported IC50 value. # answer = label of selected item
// result 2
